Test: Multiple-dose (three-day) pharmacokinetic studies in FVB mice, drug in liquid diet
Assay type: in vivo, mouse
Settings: FVB, mouse, brain, oral; 3 days in liquid diet, 130 mg/kg dose; read-out: brain concentration
ATTRIBUTE_MEASURED: concentration at 3 days

Any idea what its concentration at 3 days is? The compound is Cc1ccc(Nc2nc(-c3cc(-c4ccccc4)no3)cs2)nc1 ~30 µM

====

Assay: in vitro
Conditions: mouse
ATTRIBUTE_MEASURED: CC50

COMPOUND: COc1ccc(-c2nc3cc(NC(=O)c4ccc(OCc5ccccc5)cc4)ccc3o2)cc1 [IND-0114202]
CC50: > 10 µM

COMPOUND: CCOc1ccc(NC(=O)c2cc3ccccc3cc2O)cc1 [IND-0031751]
CC50: > 10 µM

Any idea what its CC50 is? The compound is COc1cc(NC(=O)c2sc3nc(-c4cccs4)ccc3c2N)cc(OC)c1OC [IND-0042103] > 10 µM

Any idea what its CC50 is? The compound is COc1ccc(-c2ccc3c(N)c(C(=O)Nc4ccc(F)cc4)sc3n2)cc1OC [IND-0044746] > 10 µM

Any idea what its CC50 is? The compound is Oc1ccc(/C=C/c2cc(O)cc(O)c2)cc1 [IND-0047971] > 10 µM
